Cited source for all entries: patent US7119182

- target_system: T1, human thrombin receptor (human, UniProt P25116 42-425)
- T1 chain: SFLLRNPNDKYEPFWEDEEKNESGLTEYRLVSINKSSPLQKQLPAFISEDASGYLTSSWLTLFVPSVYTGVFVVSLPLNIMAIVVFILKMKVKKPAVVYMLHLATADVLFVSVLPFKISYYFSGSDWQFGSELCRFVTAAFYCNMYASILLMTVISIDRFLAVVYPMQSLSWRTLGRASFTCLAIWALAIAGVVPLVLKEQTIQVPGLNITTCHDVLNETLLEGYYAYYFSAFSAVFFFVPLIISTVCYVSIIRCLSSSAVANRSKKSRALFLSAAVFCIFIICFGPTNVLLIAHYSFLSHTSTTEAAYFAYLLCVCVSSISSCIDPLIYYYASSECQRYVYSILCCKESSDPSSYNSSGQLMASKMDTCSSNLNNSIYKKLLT
- measurement_protocol: cell-based or functional assay
Square brackets hold non-standard residues; d marks the D form. Ends that are not written are not given here. Tic = O=C(O)[C@@H]1Cc2ccccc2CN1; Cha = N[C@@H](CC1CCCCC1)C(=O)O; Phg = N[C@H](C(=O)O)c1ccccc1
# strict inequality: EC50 (concentration required to elicit a 50% maximal aggregation), platelet aggregation < 20 µM yields true (1), everything else yields false (0)

>  <binder>
TFLLRNPNDK

>  <assigned_class>
true (1)

$$$$
>  <binder>
SFLQRN-NH2 [SFLQRN-NH2]

>  <assigned_class>
false (0)

$$$$
>  <binder>
SFLLKN-NH2 [SFLLKN-NH2]

>  <assigned_class>
true (1)

$$$$
>  <binder>
SFFLRN-NH2 [SFFLRN-NH2]

>  <assigned_class>
true (1)

$$$$
>  <binder>
SFL[Cha]R-NH2 (N-terminus assumed; SMILES CC(C)C[C@H](NC(=O)[C@H](Cc1ccccc1)NC(=O)[C@@H](N)CO)C(=O)N[C@@H](CC1CCCCC1)C(=O)N[C@@H](CCCNC(=N)N)C(N)=O) [SFL(Cha)R-NH2]

>  <assigned_class>
true (1)

$$$$
>  <binder>
SFYLRN-NH2 [SFYLRN-NH2]

>  <assigned_class>
true (1)

$$$$
>  <binder>
SFGLR-NH2 [SFGLR-NH2]

>  <assigned_class>
false (0)

$$$$
>  <binder>
SF[Cha][Cha]RK-NH2 (N-terminus assumed; SMILES N=C(N)NCCC[C@H](NC(=O)[C@H](CC1CCCCC1)NC(=O)[C@H](CC1CCCCC1)NC(=O)[C@H](Cc1ccccc1)NC(=O)[C@@H](N)CO)C(=O)N[C@@H](CCCCN)C(N)=O) [SF(Cha) (Cha)RK-NH2]

>  <assigned_class>
true (1)

$$$$
>  <binder>
SFHLRN-NH2 [SFHLRN-NH2]

>  <assigned_class>
false (0)

$$$$
>  <binder>
desaminoAsn-FLLR-NH2 [[desaminoAsn]-FLLR-NH2]

>  <assigned_class>
false (0)

$$$$
>  <binder>
SFLLRNP-NH2 [SFLLRNP-NH2]

>  <assigned_class>
true (1)

$$$$
>  <binder>
SF[Tic]LRN-NH2 (N-terminus assumed; SMILES CC(C)C[C@H](NC(=O)[C@@H]1Cc2ccccc2CN1C(=O)[C@H](Cc1ccccc1)NC(=O)[C@@H](N)CO)C(=O)N[C@@H](CCCNC(=N)N)C(=O)N[C@@H](CC(N)=O)C(N)=O) [SF(Tic)LRN-NH2]

>  <assigned_class>
true (1)

$$$$
>  <binder>
SXLLR (Thi at position 2; C-terminal amide (NH2)) [S(Thi)LLR-NH2]

>  <assigned_class>
true (1)

$$$$
>  <binder>
SF[Phg]LR-NH2 (N-terminus assumed; SMILES CC(C)C[C@H](NC(=O)[C@@H](NC(=O)[C@H](Cc1ccccc1)NC(=O)[C@@H](N)CO)c1ccccc1)C(=O)N[C@@H](CCCNC(=N)N)C(N)=O) [SF(Phg)LR-NH2]

>  <assigned_class>
true (1)

$$$$
>  <binder>
SFLLR-NH2 [SFLLR-NH2]

>  <assigned_class>
true (1)

$$$$
>  <binder>
SFLFR-NH2 [SFLFR-NH2]

>  <assigned_class>
true (1)

$$$$
>  <binder>
SFLAR-NH2 [SFLAR-NH2]

>  <assigned_class>
false (0)

$$$$
>  <binder>
SFXLR (N-MeLeu at position 3; C-terminal amide (NH2)) [SF(N-MeLeu)LR-NH2]

>  <assigned_class>
false (0)

$$$$
>  <binder>
{3‑Tetrahydrofuranoyl}-FLLR-NH2 [[3-Tetrahydrofuranoyl]-FLLR-NH2]

>  <assigned_class>
false (0)

$$$$
>  <binder>
SFWLR-NH2 [SFWLR-NH2]

>  <assigned_class>
false (0)

$$$$
>  <binder>
SFLLRNPN

>  <assigned_class>
true (1)

$$$$
>  <binder>
SFLL-NH2 [SFLL-NH2]

>  <assigned_class>
false (0)

$$$$
>  <binder>
SF[Cha][Cha]LRNPNDK [SF(Cha) (Cha)LRNPNDK]

>  <assigned_class>
true (1)

$$$$
>  <binder>
SFLLX (D-Arg at position 5; C-terminal amide (NH2)) [SFLL(D-Arg)-NH2]

>  <assigned_class>
false (0)

$$$$
>  <binder>
SFRLR-NH2 [SFRLR-NH2]

>  <assigned_class>
true (1)

$$$$
